assay: Drug concentrations in plasma and lung tissues after 5 days of oral or inhalation dosing; assay type: in vivo, healthy male mice; conditions: male, mouse, lung tissue and plasma, inhaled; 5 days of inhalation at 15 mg/mL for 3 min; read-out: levels in lung tissues relative to plasma

[
  {
    "compound": "CCC(C)n1ncn(-c2ccc(N3CCN(c4ccc(OCC5COC(Cn6cncn6)(c6ccc(Cl)cc6Cl)O5)cc4)CC3)cc2)c1=O (stereo not shown) [itraconazole]",
    "Kp at 2 h": "~7.3"
  }
]

----------
test: Drug concentrations in plasma and lung tissues after 5 days of oral or inhalation dosing; format: in vivo, healthy male mice; conditions: male, mouse, lung tissue and plasma; 5 days of oral dosing at 15 mg/kg; read-out: levels in lung tissues relative to plasma
recorded_endpoint: Kp at 2 h

[
  {
    "compound": "CCC(C)n1ncn(-c2ccc(N3CCN(c4ccc(OCC5COC(Cn6cncn6)(c6ccc(Cl)cc6Cl)O5)cc4)CC3)cc2)c1=O (stereo not shown)",
    "measurement": "~1.3"
  }
]

----------
experiment: Drug concentrations in plasma and lung tissues after 5 days of oral or inhalation dosing; format: in vivo, healthy male mice; conditions: male, mouse, plasma, inhaled; Group B: i.h., 15 mg/mL for 3 min, q.d., 5 days; two hours after last dose; read-out: Plasma Concentrations
recorded_endpoint: concentration at 2 h (ng/mL)

[
  {
    "compound": "CCC(C)n1ncn(-c2ccc(N3CCN(c4ccc(OCC5COC(Cn6cncn6)(c6ccc(Cl)cc6Cl)O5)cc4)CC3)cc2)c1=O (stereo not shown) [itraconazole]",
    "units_label": "ng/mL",
    "measurement": 80.9
  }
]

----------
test: Drug concentrations in plasma and lung tissues after 5 days of oral or inhalation dosing; format: in vivo, healthy male mice; conditions: male, mouse, plasma, po; Group A: p.o., 15 mg/kg, q.d., 5 days; two hours after last dose; read-out: Plasma Concentrations
recorded_endpoint: concentration at 2 h (ng/mL)

[
  {
    "compound": "CCC(C)n1ncn(-c2ccc(N3CCN(c4ccc(OCC5COC(Cn6cncn6)(c6ccc(Cl)cc6Cl)O5)cc4)CC3)cc2)c1=O (stereo not shown)",
    "recorded_endpoint": "concentration at 2 h",
    "measurement": 133
  }
]

----------
assay: Drug concentrations in plasma and lung tissues after 5 days of oral or inhalation dosing; format: in vivo, healthy male mice; details: male, mouse, lung tissue and plasma, inhaled; inhalation dose of 50 mg/mL for 3 min; read-out: levels in lung tissues relative to plasma
recorded_endpoint: Kp at 2 h

[
  {
    "molecule": "CCC(C)n1ncn(-c2ccc(N3CCN(c4ccc(OCC5COC(Cn6cncn6)(c6ccc(Cl)cc6Cl)O5)cc4)CC3)cc2)c1=O (stereo not shown)",
    "measurement": 8.3
  }
]

----------
experiment: Plasma drug levels, Example 2; assay type: in vivo, C57BL/6 mice; conditions: C57BL/6, mouse, po, Day 21, 15+60 mg/kg p.o. daily, read-out: two-hour post dosing plasma drug level, itraconazole and nintedanib combined in administration
recorded_endpoint: concentration at 2 h (ng/mL)

[
  {
    "molecule": "CCC(C)n1ncn(-c2ccc(N3CCN(c4ccc(OCC5COC(Cn6cncn6)(c6ccc(Cl)cc6Cl)O5)cc4)CC3)cc2)c1=O (centres unmarked)",
    "recorded_endpoint": "concentration at 2 h",
    "units_label": "ng/mL",
    "measurement": 518
  },
  {
    "molecule": "COC(=O)c1ccc2c(c1)NC(=O)/C2=C(\\Nc1ccc(N(C)C(=O)CN2CCN(C)CC2)cc1)c1ccccc1",
    "recorded_endpoint": "concentration at 2 h",
    "units_label": "ng/mL",
    "measurement": 397
  }
]
